OD492 nm overview
- assay_system: T1, HCV Core1-169 recombinant antigen (hepatitis C virus (HCV-1), UniProt P26664 1-169)
- T1 sequence: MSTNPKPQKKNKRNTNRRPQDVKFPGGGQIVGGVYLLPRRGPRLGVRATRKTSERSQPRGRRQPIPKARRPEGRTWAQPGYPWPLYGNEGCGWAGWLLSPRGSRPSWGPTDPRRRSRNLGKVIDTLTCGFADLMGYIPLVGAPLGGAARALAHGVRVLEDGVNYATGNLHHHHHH
- procedure_text: sandwich EIA, 25 ng/ml core1-169; capture mAb 208B-1096
metric_name: OD492 nm (OD492)

{"binder": "HCV 208A-293 monoclonal antibody (antibody, V domains shown) VH: EVQLQQSGPELVKPGASVKISCKASGFTFTEYAMHWMKQSHGKSLEWIGGINPTNGDAIYNQKFKDKAKLTVDRSSSTAYMELRSLTSDDSALFYCARRELDYFPSWGQGTTLTVSS VL: DIVLTQSPASLIVSLGQRATISCRASQSVSTSRFSYVHWIQQKPGQPPKLLIKYASNLESGVPVRFSGSGSGTDFILNIHPVEEEDTATYFCQHSWEFPFTFGSGTKLEIKR", "readout_number": 0.41}
{"binder": "HCV 208A-557 monoclonal antibody (antibody, V domains shown) VH: QGQMQQSGAELVKPGASVKLSCKTSGFTFSSSYISWLKQKPGQSLEWIAWIYAGTGNTNYNQKFTDKAQLTVDTSSSTAYMQLSSLTTEDSAIYYCAISGTGFTYWGQGTLVTVSA VL: DIALTQSPASLAVSLGQRATISCRASQSVSTSRYSYMHWYQQKPGQPPELLIKYASNLESGVPARFSGSGSGTDFTLNIHPVGEEDTATYYCQHSWDFPFTFGSGTKLEIKR", "readout_number": 0.35}
{"binder": "208B-612-226 monoclonal antibody (antibody, V domains shown) VH: EVQLQQSGPELVKPGASVKMSCKASGYRFTSYVMHWVRQKPGQGLEWIGYIDPHNDDTKYSEKFRGKATLTSDKSSTTAYMELSSLTSEDSAVYYCVRYSYDRDYSPMDYWGQGTSVTVSS VL: QIVLTQSPTLMSASPGEKVTMTCSASSTVTYIYWYQQKPGSSPRLWMYDTFNLVSGVPARFSGSRSGTSYFLTISSMEGEDAATYYCQQYSDSPYTFGGGTKLEIKR", "readout_number": 0.7}
